Recorded values, source PubChem BioAssay AID1963423.

# System: 439559-082-T-J2-PDC complex spheroid growth
# Assay explanation: Anticancer human tumor 439559-082-T-J2-PDC patient-derived colon adenocarcinoma cell line growth inhibition [Asc]
# Experimental setup: second compound 0.0949 µM; first compound 0.1 µM; active compounds read low
Measurement label: viability, T/C (%)
Use % as the unit, but write only the number.

Molecule	Assayed target	viability, T/C / %
CCN1CCN(Cc2ccc(Nc3ncc(F)c(-c4cc(F)c5nc(C)n(C(C)C)c5c4)n3)nc2)CC1 + CCN1C(C(=O)NC23CCC(C(=O)O)(CC2)CC3)C(c2cccc(Cl)c2F)C2(C(=O)Nc3cc(Cl)ccc32)C12CCCCC2	439559-082-T-J2-PDC complex spheroid growth	80.7
C=C(F)C(=O)N1CCN(c2nc(OCC3CCCN3C)nc3c2CCN(c2cccc4cccc(Cl)c24)C3)CC1CC#N (centres undefined) + CCN1C(C(=O)NC23CCC(C(=O)O)(CC2)CC3)C(c2cccc(Cl)c2F)C2(C(=O)Nc3cc(Cl)ccc32)C12CCCCC2	439559-082-T-J2-PDC complex spheroid growth	112
CNC(C)C(=O)NC1CN(S(=O)(=O)c2cccc(S(=O)(=O)N3CCC4CCC(C(=O)NC(c5ccccc5)c5ccccc5)N4C(=O)C(NC(=O)C(C)NC)C3)c2)CCC2CCC(C(=O)NC(c3ccccc3)c3ccccc3)N2C1=O (centres undefined) + CCN1C(C(=O)NC23CCC(C(=O)O)(CC2)CC3)C(c2cccc(Cl)c2F)C2(C(=O)Nc3cc(Cl)ccc32)C12CCCCC2	439559-082-T-J2-PDC complex spheroid growth	96.8

Here's the next entry for you.
Query: Indicate its recorded viability, T/C; the molecule in question is C#Cc1c(F)ccc2cc(O)cc(-c3ncc4c(N5CC6CCC(C5)N6)nc(OCC56CCCN5CC(F)C6)nc4c3F)c12 (centres undefined) + CCN1C(C(=O)NC23CCC(C(=O)O)(CC2)CC3)C(c2cccc(Cl)c2F)C2(C(=O)Nc3cc(Cl)ccc32)C12CCCCC2
Response: 84.8

====

# System: 439559-082-T-J2-PDC complex spheroid growth
# Assay explanation: Anticancer human tumor 439559-082-T-J2-PDC cell line growth inhibition [Asc];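 further: spheroids exposed to agents for 7 days starting day 3 after seeding; percent of DMSO vehicle control viability with 100% = vehicle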
# Experimental setup: second compound 1 µM; first compound 0.0316 µM; active compounds read low
Reported viability, T/C values for a set of compounds
Use % as the unit, but write only the number.

Observe how each entry below is paired with its result.
Compound	viability, T/C / %
O=C(c1cc(Cc2n[nH]c(=O)c3ccccc23)ccc1F)N1CCN(C(=O)C2CC2)CC1 + CNC(C)C(=O)NC1CN(S(=O)(=O)c2cccc(S(=O)(=O)N3CCC4CCC(C(=O)NC(c5ccccc5)c5ccccc5)N4C(=O)C(NC(=O)C(C)NC)C3)c2)CCC2CCC(C(=O)NC(c3ccccc3)c3ccccc3)N2C1=O	81.9
C=C(F)C(=O)N1CCN(c2nc(OCC3CCCN3C)nc3c2CCN(c2cccc4cccc(Cl)c24)C3)CC1CC#N (stereo not drawn) + Cc1c(S(C)(=O)=O)c(-c2cc(F)cc(N3CCN(c4ccc(NS(=O)(=O)c5ccc(NC(CCN6CCC(C(=O)OCCCP(=O)(O)O)CC6)CSc6ccccc6)c(S(=O)(=O)C(F)(F)F)c5)cc4)CC3)c2)c(-c2ccc(Cl)cc2)n1C(C)C	95.8

Here's the next entry for you.
Query: Give viability, T/C for COc1c(OCCCN2CCOCC2)ccc2c3n(c(=NC(=O)c4cnc(N)nc4)nc12)CCN3 + CNC(C)C(=O)NC1CN(S(=O)(=O)c2cccc(S(=O)(=O)N3CCC4CCC(C(=O)NC(c5ccccc5)c5ccccc5)N4C(=O)C(NC(=O)C(C)NC)C3)c2)CCC2CCC(C(=O)NC(c3ccccc3)c3ccccc3)N2C1=O tested on 439559-082-T-J2-PDC complex spheroid growth.
Response: 65.6
